Target: T1, Anti-CD28 Fab (SEQ ID NOs: 696, 697)
T1 construct: Biotinylated and captured on neutravidin coated plates in the phage ELISA
T1 sequence (VH, as listed by the source, chain 1 of 2): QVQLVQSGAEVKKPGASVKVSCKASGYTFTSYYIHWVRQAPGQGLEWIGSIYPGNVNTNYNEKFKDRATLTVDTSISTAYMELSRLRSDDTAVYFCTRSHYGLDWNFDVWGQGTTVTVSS
T1 sequence (VL, as listed by the source, chain 2 of 2): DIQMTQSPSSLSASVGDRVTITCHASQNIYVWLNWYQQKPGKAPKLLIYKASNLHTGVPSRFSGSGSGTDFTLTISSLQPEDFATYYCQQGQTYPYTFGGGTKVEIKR
Test: phage binding ELISA; biotinylated anti-CD28 Fab on neutravidin plate, clonal phage supernatant, anti-M13 HRP detection
Metric: Anti-CD28 Fab signal (phage binding ELISA)
Lab note: record the figure alone, no unit after it.

INPUT: Tell us which Anti-CD28 Fab signal (phage binding ELISA) value is on record for YCEGHAPEYIGKCL (peptide, not shown: large carriers, Clonal phage of the Peptide-87 optimisation library, tested as crude supernatant) [Phage-497]
OUTPUT: 2.1

INPUT: Report Anti-CD28 Fab signal (phage binding ELISA), nothing else, for this binder: HCSGHHWLQVWKCF (peptide, not shown: large carriers, Clonal phage of the Peptide-87 optimisation library, tested as crude supernatant) [Phage-491]
OUTPUT: 2.31

INPUT: Consider the binder YCEGHLPEYREKCL (peptide, not shown: large carriers, Clonal phage of the Peptide-87 optimisation library, tested as crude supernatant) [Phage-487] . State its measured Anti-CD28 Fab signal (phage binding ELISA).
OUTPUT: 1.96

INPUT: Provide Anti-CD28 Fab signal (phage binding ELISA) value for the following binder: YCWSHSPPFIKKCY (peptide, not shown: large carriers, Clonal phage of the Peptide-87 optimisation library, tested as crude supernatant) [Phage-492]
OUTPUT: 2.06

INPUT: Let me know recorded Anti-CD28 Fab signal (phage binding ELISA) for YCEGHLPEYIWKCL (peptide, not shown: large carriers, Clonal phage of the Peptide-87 optimisation library, tested as crude supernatant) [Phage-496] , thanks.
OUTPUT: 2.32

INPUT: Return the recorded Anti-CD28 Fab signal (phage binding ELISA) value; entry: YCDGHSPIYMWKCL (peptide, not shown: large carriers, Clonal phage of the Peptide-87 optimisation library, tested as crude supernatant) [Phage-498]
OUTPUT: 2.47
